The measurements presented in this section are drawn from PubChem BioAssay.

targetUnderTest: Homeobox protein Hox-A13 (Mus musculus)
assayProtocol: inhibitors of HoxA13-DNA binding, primary screen, biochemical, fluorescence polarization, labeled oligonucleotide (AID 1185)
details: 15 min, higher = more signal, called active from +8 up or from −8 down
z-score vs -2: at or above is Met, below is Not met.

{"compound": "CCCNC(=O)[C@@H]1c2ccccc2C(=O)N(Cc2cc(F)cc(C(F)(F)F)c2)[C@H]1c1ccc(CO)cc1", "answerLabel": "Not met"}
{"compound": "CCOC(=O)C1=C[C@@H](c2ccccc2)N(S(=O)(=O)c2ccc(C)cc2)[C@H]1c1ccc(F)cc1", "answerLabel": "Met"}

# next compound below
Request: Item `CCCC[C@H]1OB(O)C[C@H]2C1=C(COC)C[C@H]1C(=O)N(Cc3ccccc3)C(=O)[C@H]12` with z-score of -2 or above?
Result: Not met

---

assayProtocol: CREB reporter modulators without forskolin, primary screen, cell-based, PC12, CRE-LacZ reporter, unstimulated (AID 1145)
details: no forskolin, luminescence, 4.5 h, higher = more signal, called active from +8 up or from −8 down
property: z-score
Please reply with the value in numeric form only.

Recorded z-score, per entry:
{"molecule": "COCCOC(=O)N1C(=O)[C@@]2(c3cc(C#CCCO)ccc31)[C@H](c1ccc(OCCO)cc1)N1[C@H](c3ccccc3)[C@H](c3ccccc3)OC(=O)[C@H]1[C@@H]2C(=O)NC[C@H](O)c1ccccc1", "property": "z-score", "measValue": -1.42}
{"molecule": "CO[C@H]1O[C@H](CO)[C@@H](OC(=O)CCc2ccccc2)[C@@H]2OC(=O)[C@H](Cc3cccc(Br)c3)C/C=C/C[C@@H](Cc3cccc(Br)c3)C(=O)O[C@@H]12", "property": "z-score", "measValue": -0.198}
{"molecule": "C=C(COC)/C(=C/C[C@H](OC(C)=O)c1ccc(OCCO)cc1)c1cnc2ccccc2c1", "property": "z-score", "measValue": 7.3}

Please turn your attention to the following entry.
Record `C[N+](C)(C)CCCC[C@@H]1NC(=O)[C@H]2C[C@@H](C(=O)NCc3ccc(F)cc3)[C@@H](c3cccc(OCCO)c3)N2C1=O` , field z-score: 1.23

---

targetUnderTest: Albumin (Bos taurus) (UniProt P02769)
Sequence (P02769 whole entry, looked up): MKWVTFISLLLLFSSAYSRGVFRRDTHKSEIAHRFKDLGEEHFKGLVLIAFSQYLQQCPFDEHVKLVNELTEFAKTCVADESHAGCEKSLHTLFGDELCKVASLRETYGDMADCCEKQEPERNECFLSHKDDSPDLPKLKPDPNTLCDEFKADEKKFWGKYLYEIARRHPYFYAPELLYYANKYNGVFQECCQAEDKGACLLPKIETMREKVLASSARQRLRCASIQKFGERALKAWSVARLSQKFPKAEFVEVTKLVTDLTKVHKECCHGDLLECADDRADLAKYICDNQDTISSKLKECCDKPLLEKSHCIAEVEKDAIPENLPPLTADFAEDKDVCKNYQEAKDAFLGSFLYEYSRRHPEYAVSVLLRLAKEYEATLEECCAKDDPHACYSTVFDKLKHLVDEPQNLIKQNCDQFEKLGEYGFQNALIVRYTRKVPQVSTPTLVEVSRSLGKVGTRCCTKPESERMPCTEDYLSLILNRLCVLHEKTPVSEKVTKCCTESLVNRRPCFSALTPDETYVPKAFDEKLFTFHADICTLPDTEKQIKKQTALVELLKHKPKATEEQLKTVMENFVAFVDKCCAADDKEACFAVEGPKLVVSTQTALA
assayProtocol: bovine serum albumin binders on microarray, profiling panel, artefact control for SMM control protein annotation, biochemical, small-molecule microarray, Alexa647 label, 635/667 nm fluorescence (AID 1118);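 further: score merges 667 nm emission intensity and signal-to-noise per printed compound spot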
details: BSA-A647 binding, fluorescence 635 nm, higher = more signal
composite z-score vs 0.7: at or above is 1, below is 0.

Some solved cases for reference:
{"compound": "CO[C@H]1COC(=O)CC=C[C@@H](C)COC(=O)[C@@H](C)NC(=O)CC=C[C@@H]1C", "answerLabel": 0}
{"compound": "N#Cc1ccc(NN2C(C(O)CCc3ccccc3)C=CC3C(=O)N(c4ccccc4)C(=O)C32)cc1 (configuration not stated)", "answerLabel": 1}
{"compound": "O=C1OCC=C[C@H]2OC34C=CCN(Cc5ccccc5)C(=O)[C@H]3N(CCO)C(=O)[C@@H]4[C@@H]12 (some centres not stated)", "answerLabel": 0}

Request: Item `CO[C@H]1COC(=O)[C@@H](OCc2ccccc2)C=C[C@H](C)[C@@H](OC)COC(=O)[C@H](OCc2ccccc2)C=C[C@@H]1C` with composite z-score of 0.7 or above?
Result: 0

Request: Item `O=C1O[C@@H](c2ccccc2)[C@@H](c2ccccc2)N2[C@@H](c3ccc(OCCO)cc3)[C@]3(C(=O)Nc4ccc(C#CCCO)cc43)[C@@H](C(=O)N3CCN(c4ncccn4)CC3)[C@H]12` with composite z-score of 0.7 or above?
Result: 0

Request: Item `COc1ccc([Si](C)(C)[C@H]2[C@H](CC(=O)N(CCO)Cc3ccccc3)O[C@@]3(C(=O)N(C)c4ccccc43)[C@@H]2C)cc1` with composite z-score of 0.7 or above?
Result: 1

---

assayProtocol: modulators of HCV replicon luciferase signal, primary screen, HCV replication inhibitor project, Huh7 cells, luciferase reporter (AID 1109);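 further: huh7 hepatoma cells harbouring a luciferase neomycin HCV replicon reporter; luciferase luminescence as measure of HCV replicon replication; test concentration not given here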
details: 48 h, higher = more signal
z-score vs -1: at or above is Met, below is Not met.

{"molecule": "CO[C@H]1COC(=O)CC=C[C@H](C)[C@@H](OC)COC(=O)CC=C[C@@H]1C", "answerLabel": "Met"}

Request: Item `C=C(/C(=C/C[C@@H](OC(=O)c1ccncc1)c1ccc(CO)o1)c1cnc2ccccc2c1)C(C)C` with z-score of -1 or above?
Result: Not met

Request: Item `Cc1ccc(N2C(=O)c3ccccc3[C@@H](C(=O)NCC(F)(F)F)[C@@H]2c2ccc(CO)cc2)nc1` with z-score of -1 or above?
Result: Met

Request: Item `C[N+](C)(C)CCCCNC(=O)[C@H]1C[C@H]2C(=O)NCC(=O)N2[C@H]1c1cccc(OCCO)c1` with z-score of -1 or above?
Result: Met

Request: Item `CO[C@H]1O[C@H](CO)[C@@H](OC(=O)Nc2ccccc2)[C@H](OC(=O)Nc2ccc3c(c2)OCO3)[C@@H]1OC(=O)Nc1ccc2c(c1)OCO2` with z-score of -1 or above?
Result: Met

Request: Item `CCCC=C(CCC)[C@@H](NC(=O)c1ccc(C(F)(F)F)cc1)c1ccccc1` with z-score of -1 or above?
Result: Not met

Request: Item `O=C1O[C@H](c2ccccc2)[C@H](c2ccccc2)N2[C@H]1[C@@H](C(=O)NC[C@H](O)c1ccccc1)[C@]1(C(=O)Nc3ccc(C#CC4(O)CCCCCC4)cc31)[C@H]2c1ccc(OCCO)cc1` with z-score of -1 or above?
Result: Not met

Request: Item `O=C/C=C/c1ccc(/C=C/c2ccccc2)cc1` with z-score of -1 or above?
Result: Met

---

Tested on: Plasmodium falciparum Sir2 (PF13_0152, Sir2A)
assayProtocol: pfSir2 binders on small-molecule microarrays, primary screen, biochemical, small-molecule microarray, 635 nm fluorescence (AID 1098);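 further: score merges spot fluorescence intensity with its signal-to-noise ratio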
details: small-molecule microarray binding, fluorescence 635 nm; higher = more signal
property: composite z-score
Please reply with the value in numeric form only.

Recorded composite z-score, per entry:
{"substanceSmiles": "C[C@H]1COC(=O)[C@H](Cc2ccccc2)NC(=O)[C@@H](C)COC(=O)[C@H](Cc2ccccc2)NC1=O", "composite z-score": 0.692}
{"substanceSmiles": "CC(=O)Nc1ccc([C@H]2[C@H](C)CC[C@H]3C(=O)N4[C@@H](CC[C@@H](C)[C@@H]4c4ccc(NC(C)=O)cc4)C(=O)N32)cc1", "composite z-score": 0.75}

Please turn your attention to the following entry.
Record `COCCOC(=O)N1C(=O)[C@@]2(c3cc(C#CC4(O)CCCCCC4)ccc31)[C@H](C(=O)N1CCCCCCC1)[C@H]1C(=O)O[C@H](c3ccccc3)[C@H](c3ccccc3)N1[C@@H]2c1ccc(O)cc1` , field composite z-score: 1.26

---

assayProtocol: compound binding in COS7 lysate, probe aLAP1, primary screen, cell lysate, small-molecule microarray (AID 1124);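 further: lysate comes from COS7 cells expressing LAP1 and is applied at 0.3 µg/mL; score merges spot fluorescence near 667 nm with signal-to-noise over triplicate slides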
details: probe aLAP1, fluorescence, higher = more signal
property: composite z-score
Please reply with the value in numeric form only.

{"compound": "CCCC=C(CCC)[C@@H](NS(=O)(=O)c1ccc(-c2ccccc2)cc1)c1ccc(C(=O)OC)cc1", "composite z-score": 0.515}

Record `COCC(=C=CC[C@H](O)c1ccc(OCCO)cc1)C[C@H](O)c1ccccn1` , field composite z-score: -0.0662

Record `C=C(CCCC)C(=O)CC[C@@H](OC(C)=O)c1ccccc1OCCO` , field composite z-score: 1.23

Record `C=CC[C@]1(C(=O)N2CCCCC2)N=C(c2ccc(OCCCO)cc2)O[C@H]1c1ccccc1N=[N+]=[N-]` , field composite z-score: 0.941

---

assayProtocol: small-molecule microarray binders of probe aWnt5a, primary screen, biochemical, biotinylated probe, 635/667 nm fluorescence (AID 1113);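 further: score merges 667 nm fluorescence intensity with signal-to-noise per printed feature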
details: higher = more signal
Entries and their composite z-score values follow.
Please reply with the value in numeric form only.

Recorded composite z-score, per entry:
{"compound": "C=CCC(OC(C)=O)[C@@H]1[C@@H](N(Cc2ccc(-c3ccccc3)cc2)C(=O)c2ccc(-c3ccccc3)cc2)c2cc(OCCCO)ccc2N1C(=O)Cc1ccc(OC)cc1 (some centres undefined)", "property": "composite z-score", "measValue": 0.164}
{"compound": "C#CCCCON=C1C[C@@H](O)[C@@H](O)[C@@H]2[C@@H]3C(=O)N(Cc4ccc5c(c4)OCO5)C(=O)[C@@H]3CC[C@H]12", "property": "composite z-score", "measValue": -0.0735}
{"compound": "COC(=O)C1=CC(c2ccc(CO)cc2)=CC(C2CC2)N(Cc2sc3ccccc3c2Cl)C=C1C(=O)OC (centres undefined)", "property": "composite z-score", "measValue": 0.0017}

Please turn your attention to the following entry.
Record `CCc1cccc(NC(=O)O[C@H]2[C@H](OC(=O)Nc3ccccc3)[C@@H](OC(=O)Nc3ccccc3)[C@@H](OC)O[C@@H]2CO)c1` , field composite z-score: 0.0267
